Test Target: human carbonic anhydrase II (Homo sapiens)
Construct: purchased Sigma C-6165
Procedure Details: Carbonic anhydrase II inhibition assay (p-nitrophenol acetate, absorbance at 405 nm)
Assay type: biochemical
Reported Conditions: Table 2; overall value of N determinations; read-out: CA Assay IC50 (μM) and concentration of inhibitor added
Measured Attribute: IC50 (µM)

CCCCOc1ccc(-c2cc(C(F)(F)F)nn2-c2ccc(S(N)(=O)=O)cc2)cc1	0.04

[A] CC(=O)SCc1cc(-c2ccc(Cl)cc2)n(-c2ccc(S(N)(=O)=O)cc2)n1
[B] NS(=O)(=O)c1ccc(-n2nc(-c3ccccc3)cc2-c2ccccc2)cc1
[C] C=C1N[C@@H]2[C@@H](CS[C@@H]2CCCCC(=O)NCCOCCOCCNC(=O)CSCc2cc(-c3ccc(Cl)cc3)n(-c3ccc(S(N)(=O)=O)cc3)n2)N1
In: Reorder: IC50, max to min. State the ranking by listing the labels in the requested order.
Out: C, A, B

====

Test Target: human carbonic anhydrase II (Homo sapiens)
Construct: purchased Sigma C-6165
Procedure Details: Carbonic anhydrase II inhibition assay (p-nitrophenol acetate, absorbance at 405 nm)
Format: biochemical
Reported Conditions: Table 3; mean; read-out: Mean IC50
pIC50: −log10 of the molar value.
Measured Attribute: pIC50

COc1ccc(-c2cc(C(N)=O)nn2-c2ccc(S(N)(=O)=O)cc2)cc1 [Compound 39]	6.59

[A] NS(=O)(=O)c1ccc(-n2nc(CO)cc2-c2ccc(O)cc2)cc1 [Compound 47]
[B] NC(=O)c1cc(-c2ccccc2)n(-c2ccc(S(N)(=O)=O)cc2)n1 [Compound 38]
[C] Cc1ccc(-c2cc(C(F)(F)F)n(-c3ccc(S(N)(=O)=O)cc3)n2)cc1 [Compound 63]
[D] NS(=O)(=O)c1ccc(-n2nc(C(F)(F)F)c3c2-c2ccccc2[S+]([O-])C3)cc1 (centres unmarked) [Compound 45]
In: List items by pIC50 in falling order. List the labels in the requested order.
Out: C, D, A, B

====

Test Target: human carbonic anhydrase II (Homo sapiens)
Construct: purchased Sigma C-6165
Procedure Details: Carbonic anhydrase II inhibition assay (p-nitrophenol acetate, absorbance at 405 nm)
Type: biochemical
Reported Conditions: Table 3; mean; read-out: Mean IC50
Measured Attribute: IC50 (nM)

See these solved cases before continuing.
COC(C)Cc1cc(C(F)F)nn1-c1ccc(S(N)(=O)=O)cc1 (stereo not shown)	18.4
NC(=O)c1cc(-c2ccccn2)n(-c2ccc(S(N)(=O)=O)cc2)n1	127
NC(=O)c1nn(-c2ccc(S(N)(=O)=O)cc2)c2c1CNc1ccccc1-2	101
COc1ccc(-c2cc(C(=O)O)nn2-c2ccc(S(N)(=O)=O)cc2)cc1	4900
NS(=O)(=O)c1ccc(-n2nc(C(=O)O)c3c2-c2cn[nH]c2CC3)cc1	1240

[I] NC(=O)c1cc(-c2ccco2)n(-c2ccc(S(N)(=O)=O)cc2)n1
[II] NC(=O)c1nn(-c2ccc(S(N)(=O)=O)cc2)c2c1CSCC2
[III] COC(=O)c1cc(-c2ccc(OC)cc2)n(-c2ccc(S(N)(=O)=O)cc2)n1
[IV] C#CCN(CC#C)S(=O)(=O)c1ccc(-n2nc(C(N)=O)c3c2-c2nc(N)ncc2CC3)cc1
In: Put the items in sequence by IC50, from largest down. Please reply with the labels ordered as requested. Many thanks.
Out: IV, III, I, II
(IV: 2910 nM, III: 239 nM, I: 79.4 nM, II: 35.6 nM)

[P] NS(=O)(=O)c1ccc(-n2nc(C(F)(F)F)cc2-c2cccnc2)cc1
[Q] NC(=O)c1nn(-c2ccc(S(N)(=O)=O)cc2)c2c1CCc1cnccc1-2
In: Which entry has a larger number for IC50, P or Q ? Lab log: write the label of the selected item as the result.
Out: Q

Values compiled from patent US20030220376A1.
